# System tested: recombinant human PDE-IV (HSPDE4A) [組み換えヒトPDE−IV (HSPDE4A)] (Homo sapiens, UniProt P27815)
# Construct: made in house; host or cells: Sf9 insect cells
# Sequence (P27815 whole entry): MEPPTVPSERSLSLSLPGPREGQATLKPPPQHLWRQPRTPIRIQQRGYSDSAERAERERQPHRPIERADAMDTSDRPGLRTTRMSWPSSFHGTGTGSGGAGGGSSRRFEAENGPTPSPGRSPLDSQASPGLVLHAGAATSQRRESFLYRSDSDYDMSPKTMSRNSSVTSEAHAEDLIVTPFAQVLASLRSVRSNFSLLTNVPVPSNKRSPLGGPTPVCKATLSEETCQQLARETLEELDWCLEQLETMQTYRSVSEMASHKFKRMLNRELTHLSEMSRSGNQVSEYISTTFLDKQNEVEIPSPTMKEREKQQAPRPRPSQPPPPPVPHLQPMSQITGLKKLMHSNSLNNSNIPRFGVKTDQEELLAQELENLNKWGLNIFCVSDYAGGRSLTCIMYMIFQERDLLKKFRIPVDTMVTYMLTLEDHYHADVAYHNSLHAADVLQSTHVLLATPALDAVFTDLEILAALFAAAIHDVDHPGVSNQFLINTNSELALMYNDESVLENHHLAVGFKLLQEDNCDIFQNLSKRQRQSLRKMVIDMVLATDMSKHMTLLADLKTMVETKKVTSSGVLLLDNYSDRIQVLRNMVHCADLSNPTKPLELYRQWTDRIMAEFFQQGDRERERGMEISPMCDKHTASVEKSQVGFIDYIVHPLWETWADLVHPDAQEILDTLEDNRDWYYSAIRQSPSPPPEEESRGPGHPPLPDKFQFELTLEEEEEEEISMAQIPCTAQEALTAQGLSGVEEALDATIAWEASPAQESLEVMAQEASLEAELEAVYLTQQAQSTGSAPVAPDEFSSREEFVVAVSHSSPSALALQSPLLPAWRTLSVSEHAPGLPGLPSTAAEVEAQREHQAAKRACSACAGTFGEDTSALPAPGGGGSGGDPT
# Assay summary: Recombinant human PDE-IV enzyme inhibition test
# Assay type: biochemical
# Assay setup: read-out: enzyme inhibitory activity
Measured property: inhibition at 1 µM

# Molecule, inhibition at 1 µM
rows = [
    ("N#CC1(c2ccc(OC(F)F)c3oc(C4CC4)cc23)CCN(CC(=O)O)CC1 [化合物89, 塩酸塩]", "≥ 50%"),
    ("COc1ccc(C2(C#N)CCN(CC(=O)O)CC2)c2cc(C3CC3)oc12 [化合物83, 塩酸塩]", "≥ 50%"),
]

Next molecule, inhibition at 1 µM to be filled in.
Report measured inhibition at 1 µM; entry is COc1ccc(C2(C#N)CCN(CC(=O)O)CC2)c2cc(Cc3ccccc3)oc12 [化合物81, 塩酸塩]
≥ 50%

* * *

# System tested: recombinant human PDE-IV (HSPDE4A) [組み換えヒトPDE−IV (HSPDE4A)] (Homo sapiens, UniProt P27815)
# Construct: made in house; host or cells: Sf9 insect cells
# Assay summary: Recombinant human PDE-IV enzyme inhibition test
# Format: biochemical
# Assay setup: read-out: enzyme inhibitory activity
Measured property: inhibition at 1 µM

# Compound, System tested, Result
rows = [
    ("COc1ccc(C2(C#N)CCN(CC(=O)O)CC2)c2cc(CC(C)(C)C)oc12", "recombinant human PDE-IV (HSPDE4A) [組み換えヒトPDE−IV (HSPDE4A)] (Homo sapiens, UniProt P27815)", "≥ 50%"),
    ("COc1ccc(C2(C#N)CCN(CC(=O)O)CC2)c2cc(CC(C)C)oc12", "recombinant human PDE-IV (HSPDE4A) [組み換えヒトPDE−IV (HSPDE4A)] (Homo sapiens, UniProt P27815)", "≥ 50%"),
    ("COc1ccc(C2(C#N)CCN(CC(=O)O)CC2)c2cc(C3(c4ccccc4)CC3)oc12", "recombinant human PDE-IV (HSPDE4A) [組み換えヒトPDE−IV (HSPDE4A)] (Homo sapiens, UniProt P27815)", "≥ 50%"),
    ("COc1ccc(C2(C#N)CCN(CC(=O)O)CC2)c2c3c(oc12)CCCC3", "recombinant human PDE-IV (HSPDE4A) [組み換えヒトPDE−IV (HSPDE4A)] (Homo sapiens, UniProt P27815)", "≥ 50%"),
]

// each listed compound needs a value for inhibition at 1 µM
1. COc1ccc(C2(C#N)CCN(CC(=O)O)CC2)c2cc(C3CC3C)oc12 (stereo not drawn)
2. COc1ccc(C2(C#N)CCN(CC(=O)O)CC2)c2cc(C3(C)CC3)oc12

1. ≥ 50%
2. ≥ 50%

Each compound below has a reported value. Please supply its inhibition at 1 µM.
1. COc1ccc(C2(C#N)CCN(CC(=O)O)CC2)c2cc(C3CCC3)oc12
2. COc1ccc(C2(C#N)CCN(CC(=O)O)CC2)c2cc(C(C)C)oc12
3. COc1ccc(C2(C#N)CCN(CC(=O)O)CC2)c2cc(C(C)(C)C)oc12

1: ≥ 50%; 2: ≥ 50%; 3: ≥ 50%
